experiment: in vivo
condition.details: mouse, plasma, po, 25 mg/kg, pH 2.3
quantity.kind: AUC (ng·h/mL)
Report the value in ng·h/mL with no unit label.

A selection of reference data follows.
| compound | AUC [ng·h/mL] |
| --- | --- |
| Cc1cc(C(=O)Nc2cc(C(=O)c3ccc4c(/C=C/c5ccccn5)n[nH]c4c3)ccc2C)n(C)n1 | 5600 |
| CN(O)C(=O)c1ccccc1Sc1ccc2c(/C=C/c3ccccn3)n[nH]c2c1 | 683 |
| COc1cc(C(=O)Nc2cccc(C(=O)c3ccc4c(/C=C/c5ccccn5)n[nH]c4c3)c2)cc(Cl)n1 | 875 |
| O=C(NNc1ccccn1)c1ccccc1Sc1ccc2c(/C=C/c3ccccn3)n[nH]c2c1 | 4820 |
| CCn1nc(C)cc1C(=O)Nc1cccc(Oc2ccc3c(/C=C/c4c[nH]c(C)n4)n[nH]c3c2)c1 [Reference Example 32(c)] | 388 |
| Cc1cc(C(=O)Nc2cc(C(=O)c3ccc4c(/C=C/c5ccccn5)n[nH]c4c3)c(C)cc2C)n(C)n1 | 2260 |
| CC(=O)Nc1cc(C(=O)c2ccc3c(/C=C/c4ccccn4)n[nH]c3c2)ccc1C | 2690 |
| CCn1nc(C)cc1C(=O)Nc1cccc(Oc2ccc3c(/C=C/c4ccccn4)n[nH]c3c2)c1 [Reference Example 31(d)] | 204000 |
| CCn1nc(C)cc1C(=O)Nc1cccc(Oc2ccc3c(/C=C/c4c[nH]cn4)n[nH]c3c2)c1 [Reference Example 32(b)] | 490 |

In the following, a different compound is considered.
Sure, the documented AUC for Cc1cc(C(=O)Nc2cccc(C(=O)c3ccc4c(/C=C/c5ccccn5)n[nH]c4c3)c2)n(C(C)C)n1 is 24200

###

tested.target: human FAK (FAKcd409) (Homo sapiens, UniProt Q05397, P410T)
Construct: comprises residues methionine 409 to glutamate 689; made in house; host or cells: baculovirus vector expression system (insect cells)
Sequence (Q05397 409-689 P410T): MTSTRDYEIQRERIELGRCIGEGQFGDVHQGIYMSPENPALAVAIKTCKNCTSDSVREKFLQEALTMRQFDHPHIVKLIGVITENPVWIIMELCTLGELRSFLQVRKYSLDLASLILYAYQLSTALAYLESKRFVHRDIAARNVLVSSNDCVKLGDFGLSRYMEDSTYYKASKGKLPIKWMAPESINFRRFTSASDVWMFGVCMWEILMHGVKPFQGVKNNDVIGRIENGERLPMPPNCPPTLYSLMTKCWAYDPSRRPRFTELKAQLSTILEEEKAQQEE
experiment: FAK fluorescence polarization assay
Format: biochemical
condition.details: Table 5; 1 µM; read-out: % Inhibition @ 1 µM FAK
quantity.kind: inhibition at 1 µM (%)
Report the value in % with no unit label.

| molecule | tested.target | quantity.kind | scale.unit | measurement |
| --- | --- | --- | --- | --- |
| Cc1cc(C(=O)Nc2cccc(C(=O)c3ccc4c(/C=C/c5ccccn5)n[nH]c4c3)c2)n(C)n1 [Reference Example 41(p)] | human FAK (FAKcd409) (Homo sapiens, UniProt Q05397, P410T) | inhibition at 1 µM | % | 9 |
| CCn1nc(C)cc1C(=O)Nc1cc(C(=O)c2ccc3c(/C=C/c4ccccn4)n[nH]c3c2)ccc1C [Reference Example 41(ee)] | human FAK (FAKcd409) (Homo sapiens, UniProt Q05397, P410T) | inhibition at 1 µM | % | 7 |
| CCn1nc(C)cc1C(=O)Nc1cccc(Oc2ccc3c(/C=C/c4ccccn4)n[nH]c3c2)c1 [Reference Example 31(d)] | human FAK (FAKcd409) (Homo sapiens, UniProt Q05397, P410T) | inhibition at 1 µM | % | 6 |
| CCn1nc(C)cc1C(=O)Nc1cc(Nc2ccc3c(/C=C/c4ccccn4)n[nH]c3c2)c(F)cc1C [Example 48(a)] | human FAK (FAKcd409) (Homo sapiens, UniProt Q05397, P410T) | inhibition at 1 µM | % | 11 |
| C=CCn1nc(C)cc1C(=O)Nc1cccc(C(=O)c2ccc3c(/C=C/c4ccccn4)n[nH]c3c2)c1 [Reference Example 41(t)] | human FAK (FAKcd409) (Homo sapiens, UniProt Q05397, P410T) | inhibition at 1 µM | % | 9 |
| CCONC(=O)c1ccccc1Sc1ccc2c(/C=C/c3ccccn3)n[nH]c2c1 [Reference Example 35(dd)] | human FAK (FAKcd409) (Homo sapiens, UniProt Q05397, P410T) | inhibition at 1 µM | % | 4 |

In the following, a different molecule is considered.
Sure, the documented inhibition at 1 µM for CC(C)ONC(=O)c1ccccc1Sc1ccc2c(/C=C/c3ccccn3)n[nH]c2c1 [Reference Example 35(k)] is 7
